system: DMS-273; assay: NCI tumour cell line growth inhibition, 48 h
Activity calls are given as the source filed them. Rule as the data show it: active = GI50 up to about 1.1 µM and inactive = higher.
Pick from active, inactive when you respond.

Please review the following examples before continuing.
CC(=O)OC1C(COC(N)=O)OC(n2c(-c3ccc(C)cc3)cc(-c3ccccc3)c(C#N)c2=O)C(OC(C)=O)C1OC(C)=O (centres undefined) : inactive
C/C(=N\NC(N)=O)C(CN1CCCCC1)C(c1ccccc1)c1c(O)c2ccccc2oc1=O (centres undefined) : inactive
Cc1nc2ccccc2c(=O)n1/N=C(\N=N\c1cccc(Cl)c1)c1ccccc1Cl : inactive

Problem: Short answer needed: outcome of this test for CCN(CC)CCN1CCc2c([nH]c3ccccc23)C1c1cccnc1 (centres undefined) ?
Solution: inactive

Problem: How was CCN(CC)CC(C(=O)Nc1c(C)cccc1C)/C(C)=N\NC(=O)C[N+](C)(C)C (centres undefined) classified in this test?
Solution: inactive

Problem: GET /call?item= "O=C(Cn1ccnc1[N+](=O)[O-])NCc1ccc(F)cc1" returns the recorded outcome of this test.
Solution: inactive

Problem: How was "Nc1ncnc2c1ncn2COC/C=C/I" classified in this test?
Solution: inactive

Problem: For O=CC1CCC=CC1NC(=O)OCc1ccccc1 (centres undefined) , what call appears in the results of this test?
Solution: inactive

Problem: Tell me the assay call for "C=CCC1=C(C)C[C@@H]2CCC(=O)C=C12" please.
Solution: inactive

Problem: Record request — test call for O=c1[nH]c(=O)n(C2OC(CO)C(O)C2O)cc1OCc1ccccc1 (centres undefined)
Solution: inactive

Problem: Hi team, can someone confirm the assay call for "CCOC(=O)C(C(=O)OCC)=C1C=C(c2ccccc2)c2ccccc21" ?
Solution: inactive

Problem: Hi, do you know how "O=c1c2cccc3cccc(c4oc5c6cccc7cccc(c(=O)c5c14)c76)c32" came out in this test?
Solution: inactive

Problem: Record request — test call for CCN(CC)CCCC(C)Nc1ccnc2ccc3nn(C)nc3c12 (centres undefined)
Solution: inactive

Problem: Please indicate how the test categorized "CCCc1onc(CCC(=O)N(Cc2ccccc2)Cc2ccccc2)c1CC" .
Solution: inactive

Problem: Answer briefly: the call reported for C=Cc1cc(OC)c2c(c1)c(=O)oc1c2cc(OC)c2c(O)ccc(C3OC(C)C(O)C(C)(O)C3O)c21 (centres undefined) in this assay.
Solution: active

Problem: What call does the record list for CC1=NN(C(=O)Nc2ccc(Cl)cc2)C(=O)C2CCC(=O)N12 (centres undefined) ?
Solution: inactive

---

test system: UACC-62; assay: NCI tumour cell line growth inhibition, 48 h
Calls of active or inactive are those of the source. Cut-off read from the data, not from the text of the source: active = GI50 up to about 1.1 µM and inactive = higher.
Could you please pick one outcome from this set? true for active, false for inactive

CCN(CC)CCCC(C)Nc1ccnc2ccc3nn(C)nc3c12 (configuration not stated) : false
O=c1n(Cc2ccccc2)c(=O)n2c(=O)n(Cc3ccccc3)c(=O)n12 : false
Cc1ccc(-c2cc(=O)c3cc(C)c(C)c(C(=O)O)c3o2)cc1N : false
COC(=O)C1=C(C)NC(=O)N2[C@@H](CCOCc3ccccc3)CC[C@@H]12 : false
CNC(C#N)c1ccc(OC)cc1 (configuration not stated) : false
C=C1CCCC(C)(C)[C@@H]1CC/C(C)=C/Cn1c2cccc(=O)c-2nc2ccccc21 : true

Proceed to the following item.
Problem: Assay outcome for "c1ccc2c(Nc3ncco3)cccc2c1" : what was it?
Solution: false

---

tested on: SNB-19; assay: NCI tumour cell line growth inhibition, 48 h
The source made the active and inactive calls. No stated cut-off is given here; in the data, active = GI50 up to about 1.1 µM and inactive = higher.
Select the matching outcome among YES (active), NO (inactive)

The following compounds have reported results that may help.
O=C1c2ccccc2/C(=N\c2ccc3ccccc3c2)C1(C1=C(c2ccccc2)/C(=N/c2ccc3ccccc3c2)c2ccccc21)c1ccccc1 (stereo not drawn) : NO
CN(CCCCN(C)CCc1ccc(Cl)c(Cl)c1)CCCCN1CCCC1 : NO
NC(CCCNCc1ccccc1O)C(=O)O (stereo not drawn) : NO
CC1=C[C@@H](C)C[C@]2(C)CC[C@H](O2)[C@]23CC[C@](C)(C[C@H](O2)[C@@H]2O[C@@](C)(CC2=O)[C@@H](O)[C@H]2CC[C@@]4(CCC[C@@H](O4)[C@H](C)C(=O)O[C@H]4C[C@H]([C@]5(O)OCC[C@H](C)[C@@H]5O)O[C@H]4C=C1)O2)O3 : YES

Problem: Can you look up the reported call for CC(=O)C1C(c2ccccc2)C2(C)OC(=O)C(C#N)C12C (stereo not drawn) for me?
Solution: NO

Problem: In this assay, the call recorded for "[N-]=[N+]=CC(=O)C1(C(=O)C=[N+]=[N-])CC1" was what?
Solution: NO

Problem: Outcome? "Cc1cc2c(cc1C)[n+]([O-])c(C(=O)CC(=O)C(=O)Nc1c(C(C)C)cccc1C(C)C)c(C)[n+]2[O-]"
Solution: NO

Problem: Which result was noted for this compound in the test: "Brc1ccc(-c2cn3ccncc3n2)cc1"
Solution: NO

---

Please go through the items and note down their GI50.
tested on: SK-OV-3; assay: NCI tumour cell line growth inhibition, 48 h
Activity calls are given as the source filed them. Cut-off read from the data, not from the text of the source: active = GI50 up to about 1.1 µM and inactive = higher.

O=C(Cc1ccccc1)N/N=C(/c1nc2ccc([N+](=O)[O-])cc2nc1O)C(O)c1ccco1 (stereo unspecified) : > 100 µM (inactive)
CCC(=C(c1ccc(OCc2ccccc2)cc1)c1ccc(OCc2ccccc2)cc1)c1ccc(OC)cc1 : > 100 µM (inactive)
Cc1ccc(NC(=O)CC/C(CC(=O)C(C)(C)C)=N/NC(=O)C[N+](C)(C)C)cc1C : > 100 µM (inactive)
CCOC(=O)CCc1cn2cc(Br)nc(OC)c2n1 : 48.1 µM (inactive)

Please state GI50 for every compound in the list that follows.
1. CS(=O)(=O)Nc1ccc(Nc2ccnc3ccc4[nH]ccc4c23)cc1
2. COc1ccc(O)cc1C(O)c1ccccc1 (stereo unspecified)
3. C=CCC1=C(C)C[C@@H]2CCC(=O)C=C12

Solution:
1. 19.5 µM (inactive)
2. > 100 µM (inactive)
3. > 100 µM (inactive)

---

system: MOLT-4; assay: NCI tumour cell line growth inhibition, 48 h
The source made the active and inactive calls. No stated cut-off is given here; in the data, active = GI50 up to about 1.1 µM and inactive = higher.
Property measured: GI50

As a guide, the following entries are already answered.
COC(=O)C1=C(OC(=O)c2ccccc2)C(C(=O)OC)[C@]2(O)[C@@H](C(=O)OC)[C@H]1C[C@@H](c1ccccc1)[C@@H]2C(=O)OC (stereo not given in full) : 3.64 µM (inactive)
O=C(Cc1ccccc1)NN1C(=O)C(Cl)C1c1ccccc1 (stereo not given) : 23 µM (inactive)

State recorded GI50 for all listed compounds.
1. CCN(CC)CCCC(C)Nc1ccnc2ccc3nn(C)nc3c12 (stereo not given)
2. Cn1cc(S(=O)(=O)NC(=O)Nc2ccc(Cl)cc2)c(=O)c2ccc(Cl)cc21
3. CC(=O)Nc1cccc(N2C(=O)/C(=C\c3cccc(Oc4ccccc4)c3)S(=O)(=O)C2c2ccccc2)c1 (stereo not given)

Solution:
1. 25.3 µM (inactive)
2. 85.5 µM (inactive)
3. 16.1 µM (inactive)

---

test system: A549; assay: NCI tumour cell line growth inhibition, 48 h
Activity calls are given as the source filed them. Cut-off read from the data, not from the text of the source: active = GI50 up to about 1.1 µM and inactive = higher.
Tick one outcome: t = active, f = inactive

Problem: Identify the outcome logged in this assay for the molecule shown: "Cc1ccc(S(=O)(=O)c2c(O)c3ccccc3n(C)c2=O)cc1"
Solution: f

Problem: Tell me the assay call for "O=c1c2cc([N+](=O)[O-])cnc2sn1-c1ccc(Br)cc1" please.
Solution: f

Problem: What call does the record list for "CC(C)c1cc2c(c(O)c1O)[C@@]1(C)CCCC(C)(C)C1=C(O)C2" ?
Solution: f

Problem: How did this test come out for "C=CCC1=C(C)C[C@@H]2CCC(=O)C=C12" ?
Solution: f

Problem: Identify the outcome logged in this assay for the molecule shown: CCOC1NC(=O)Oc2ccccc21 (stereo unspecified)
Solution: f

Problem: So what was the verdict on "CCN(CC)CCSc1nc2cccc([N+](=O)[O-])c2[nH]1" in this test?
Solution: f

Problem: Outcome logged for CCOC(=O)C1S/C(=N\c2ccc(Cl)cc2)N=C1C (stereo unspecified) in this assay:
Solution: f

Problem: Dear all, I need the recorded test outcome for "CC1=C[C@@H](C)C[C@]2(C)CC[C@H](O2)[C@]23CC[C@](C)(C[C@H](O2)[C@@H]2O[C@@](C)(CC2=O)[C@@H](O)[C@H]2CC[C@@]4(CCC[C@@H](O4)[C@H](C)C(=O)O[C@H]4C[C@H]([C@]5(O)OCC[C@H](C)[C@@H]5O)O[C@H]4C=C1)O2)O3" , thank you.
Solution: t

Problem: Given C=Cc1cc(OC)c2c(c1)c(=O)oc1c2cc(OC)c2c(O)ccc(C3OC(C)C(O)C(C)(O)C3O)c21 (stereo unspecified) , state the outcome it received in this test.
Solution: t

---

tested on: PC-3; assay: NCI tumour cell line growth inhibition, 48 h
The source made the active and inactive calls. Cut-off read from the data, not from the text of the source: active = GI50 up to about 1.1 µM and inactive = higher.
Property measured: GI50

CC(=O)O[C@H]1CC[C@@]2(C)C(=C[C@H](c3ccc(O)cc3)[C@H]3[C@@H]4CC[C@H](OC(C)=O)[C@@]4(C)CC[C@@H]32)C1 : 14.3 µM (inactive)
CC(C)c1cc2c(c(O)c1O)[C@@]1(C)CCCC(C)(C)C1=C(O)C2 : 1.19 µM (inactive)
O=c1[nH]c(=O)n(C2CC(O)C(CO)O2)cc1OCCCc1ccccc1 (stereo not given) : > 100 µM (inactive)
C[C@@H]1CC[C@@]2(OC1)O[C@H]1[C@@H](O)[C@H]3[C@@H]4CC[C@H]5C[C@@H](O[C@@H]6O[C@H](CO)[C@H](O[C@@H]7O[C@H](CO)C(O)[C@H](O[C@@H]8OC[C@@H](O)[C@H](O)[C@H]8O)[C@H]7O[C@@H]7O[C@H](CO)[C@H](O)[C@H](O[C@@H]8O[C@H](CO)[C@@H](O)[C@H](O)[C@H]8O)[C@H]7O)[C@H](O)[C@H]6O)[C@H](O)C[C@]5(C)[C@H]4CC[C@]3(C)[C@H]1[C@@H]2C (stereo not given in full) : 2.57 µM (inactive)

Problem: Fill in the blank: the reported GI50 of O=C(O)CC(Cc1ccc2c(c1)OCO2)C(=O)O (stereo not given) is ____.
Solution: > 100 µM (inactive)
